Subject of test: hNurr1_RXRγFL (NURR1/RXRγ heterodimer) (Homo sapiens, UniProt P43354+P48443)
Sequence (P43354 328-598): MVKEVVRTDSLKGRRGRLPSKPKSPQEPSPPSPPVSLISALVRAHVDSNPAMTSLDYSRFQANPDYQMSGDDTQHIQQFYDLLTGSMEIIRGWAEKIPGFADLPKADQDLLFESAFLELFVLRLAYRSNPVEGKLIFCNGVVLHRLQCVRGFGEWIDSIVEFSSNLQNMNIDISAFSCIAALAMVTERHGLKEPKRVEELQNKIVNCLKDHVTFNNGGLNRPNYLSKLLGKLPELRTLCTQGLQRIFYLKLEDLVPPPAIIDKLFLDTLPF
Sequence (P48443 whole entry, the tested form may be a part): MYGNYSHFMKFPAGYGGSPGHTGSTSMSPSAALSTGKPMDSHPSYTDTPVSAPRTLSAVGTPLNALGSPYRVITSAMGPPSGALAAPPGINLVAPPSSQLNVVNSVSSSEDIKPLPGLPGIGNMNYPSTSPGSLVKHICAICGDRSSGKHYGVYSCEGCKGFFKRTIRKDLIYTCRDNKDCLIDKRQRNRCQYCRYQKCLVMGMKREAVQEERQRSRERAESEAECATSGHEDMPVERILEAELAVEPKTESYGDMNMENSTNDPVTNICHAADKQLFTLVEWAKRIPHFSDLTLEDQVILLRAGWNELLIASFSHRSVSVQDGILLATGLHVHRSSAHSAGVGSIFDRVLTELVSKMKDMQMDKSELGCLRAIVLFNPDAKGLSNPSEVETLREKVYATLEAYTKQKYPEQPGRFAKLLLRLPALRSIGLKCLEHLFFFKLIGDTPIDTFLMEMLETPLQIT
Experiment notes: Transactivation assay in Cos-7 cells, NURR-1-Gal4 / RXRγ, luciferase reporter
Run parameters: Cos-7 cells, overnight incubation
Property: EC50 (nM)
Your answer should be a plain number; it is taken to be in nM.

stdin: Need EC50 of CC(C)(C)c1cccc(S(=O)(=O)n2c(Cc3ccc(C(=O)O)cc3)cc3cc(C(F)(F)F)c(F)cc32)c1 , thanks.
stdout: 91

Continuing:
stdin: Need EC50 of Cc1cc(S(=O)(=O)n2c(Cc3ccc(C(=O)O)cc3)cc3cc(C(F)(F)F)ccc32)ccc1Cl , thanks.
stdout: 433

stdin: For CC(C)CCc1ccc(S(=O)(=O)n2c(Cc3ccc(C(=O)O)cc3)cc3cc(C(F)(F)F)ccc32)cc1 then?
stdout: 1590

stdin: For CC(C)(C)c1cccc(S(=O)(=O)n2c(Cc3ccc(F)c(C(=O)O)c3)cc3cc(C(F)(F)F)ccc32)c1 then?
stdout: 81

stdin: For Cc1cc(C)n(-c2ccc(S(=O)(=O)n3c(Cc4ccc(C(=O)O)cc4)cc4cc(C(F)(F)F)ccc43)cc2)n1 then?
stdout: 1480
